Numbers sourced from the supplement of paper PMC12458215.

Tested on: HEK293T
Assay: plasma membrane surface immunostaining intensity (anti-HA, deep receptor scanning) (arbitrary fluorescence units); higher = higher plasma membrane expression
Conditions: GPCR class: A (Olfactory)
observable: plasma membrane surface immunostaining intensity
Give the figure only, with no unit attached.

What value of measured plasma membrane surface immunostaining intensity is listed for MKKENQSFNLDFILLGVTSQQEQNNVFFVIFLCIYPITLTGNLLIILAICADIRLHNPMYFLLANLSLVDIIFSSVTIPKVLANHLLGSKFISFGGCLMQMYFMIALAKADSYTLAAMAYDRAVAISCPLHYTTIMSPRSCILLIAGSWVIGNTSALPHTLLTASLSFCGNQEVANFYCDIMPLLKLSCSDVHFNVKMMYLGVGVFSLPLLCIIVSYVQVFSTVFQVPSTKSLFKAFCTCGSHLTVVFLYYGTTMGMYFRPLTSYSPKDAVITVMYVAVTPALNPFIYSLRNWDMKAALQKLFSKRISS [OR1A2] ?
207

Using the record for MGFLSPMHPCRPPTQRRMAAGNHSTVTEFILKGLTKRADLQLPLFLLFLGIYLVTIVGNLGMITLICLNSQLHTPMYYFLSNLSLMDLCYSSVITPKMLVNFVSEKNIISYAGCMSQLYFFLVFVIAECYMLTVMAYDRYVAICHPLLYNIIMSHHTCLLLVAVVYAIGLIGSTIETGLMLKLPYCEHLISHYFCDILPLMKLSCSSTYDVEMTVFFSAGFNIIVTSLTVLVSYTFILSSILGISTTEGRSKAFSTCSSHLAAVGMFYGSTAFMYLKPSTISSLTQENVASVFYTTVIPMLNPLIYSLRNKEVKAAVQKTLRGKLF [OR8A1] , report its plasma membrane surface immunostaining intensity.
191

# get_value(readout='plasma membrane surface immunostaining intensity', item= MSQVTNTTQEGIYFILTDIPGFEASHIWISIPVCCLYTISIMGNTTILTVIRTEPSVHQRMYLFLSMLALTDLGLTLTTLPTVMQLLWFNVRRISSEACFAQFFFLHGFSFMESSVLLAMSVDCYVAICCPLHYASILTNEVIGRTGLAIICCCVLAVLPSLFLLKRLPFCHSHLLSRSYCLHQDMIRLVCADIRLNSWYGFALALLIIIVDPLLIVISYTLILKNILGTATWAERLRALNNCLSHILAVLVLYIPMVGVSMTHRFAKHASPLVHVIMANIYLLAPPVMNPIIYSVKNKQIQWGMLNFLSLKNMHSR [OR51Q1] )
152

Given the entry MKIANNTVVTEFILLGLTQSQDIQLLVFVLILIFYLIILPGNFLIIFTIRSDPGLTAPLYLFLGNLAFLDASYSFIVAPRMLVDFLSEKKVISYRGCITQLFFLHFLGGGEGLLLVVMAFDRYIAICRPLHCSTVMNPRACYAMMLALWLGGFVHSIIQVVLILRLPFCGPNQLDNFFCDVRQVIKLACTDMFVVELLMVFNSGLMTLLCFLGLLASYAVILCHVRRAASEGKNKAMSTCTTRVIIILLMFGPAIFIYICPFRALPADKMVSLFHTVIFPLMNPMIYTLRNQEVKTSMKRLLSRHVVCQVDFIIRN [OR4N4C] , report its measured plasma membrane surface immunostaining intensity.
323

What value of plasma membrane surface immunostaining intensity has been reported for the following sequence? MKANYSAEERFLLLGFSDWPSLQPVLFALVLLCYLLTLTGNSALVLLAVRDPRLHTPMYYFLCHLALVDAGFTTSVVPPLLANLRGPALWLPRSHCTAQLCASLALGSAECVLLAVMALDRAAAVCRPLRYAGLVSPRLCRTLASASWLSGLTNSVAQTALLAERPLCAPRLLDHFICELPALLKLACGGDGDTTENQMFAARVVILLLPFAVILASYGAVARAVCCMRFSGGRRRAVGTCGSHLTAVCLFYGSAIYTYLQPAQRYNQARGKFVSLFYTVVTPALNPLIYTLRNKKVKGAARRLLRSLGRGQAGQ [OR2I1P]
132
